Source: ChEMBL document CHEMBL4673209

Test: Protein binding in dog plasma
Type: ADME, cell-free, Canis lupus familiaris
Conditions: read-out: PPB (converted)
Experimental endpoint: fraction unbound
Answers are plain numbers.

Specify reported fraction unbound for the compound shown: COc1cc(-c2ncc(COc3cccc([C@@H](CC(=O)O)C4CC4)c3)nc2CC(C)C)c(F)cn1 0.0045

----------
Experiment: Oral bioavailability in rat
Type: ADME, organism-based
Conditions: in vivo
Experimental endpoint: bioavailability (%)
Answers are plain numbers, in %.

Specify reported bioavailability for the compound shown: COc1cc(-c2ncc(COc3cccc([C@@H](CC(=O)O)C4CC4)c3)nc2CC(C)C)c(F)cn1 123

----------
Molecular target: Free fatty acid receptor 1 (Rattus norvegicus, UniProt Q8K3T4)
Sequence (Q8K3T4 whole entry): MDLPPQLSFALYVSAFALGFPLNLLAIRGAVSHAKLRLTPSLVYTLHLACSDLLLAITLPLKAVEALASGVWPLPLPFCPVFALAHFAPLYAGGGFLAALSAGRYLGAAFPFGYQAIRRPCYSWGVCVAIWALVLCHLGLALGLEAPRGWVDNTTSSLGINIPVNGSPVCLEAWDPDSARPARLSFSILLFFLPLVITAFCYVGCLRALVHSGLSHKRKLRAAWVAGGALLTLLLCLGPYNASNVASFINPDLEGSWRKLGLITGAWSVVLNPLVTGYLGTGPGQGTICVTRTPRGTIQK
Assay: Agonist activity at GPR40 receptor in rat INS1(832/13) cells assessed as induction of IP1 accumulation
Assay type: functional, cell-based, INS-1 832/13
Experimental endpoint: pEC50
Answers are plain numbers, as −log10 of the molar value.

Specify reported pEC50 for the compound shown: COc1cc(-c2ncc(COc3cccc([C@@H](CC(=O)O)C4CC4)c3)nc2CC(C)C)c(F)cn1 6.06
